Values compiled from the supplement of paper PMC6763611.

system: Plasmodium falciparum NF54; assay: growth inhibition relative to untreated control; higher = more inhibition; conditions: 1 µM; minimal medium (MM); 72 h
So basically: growth inhibition at 10% or higher? That is Condition met. Lower than 10%? That is Condition not met.

// query Given Nc1ncnc2c1c(-c1cnc3ccccc3c1)nn2CC1CCNCC1 , state whether its growth inhibition is at least 10%.
// result Condition not met

// query Given O=C(NC1CCCCC1)N1CCN(Cc2ccc3c(c2)OCO3)CC1 , state whether its growth inhibition is at least 10%.
// result Condition not met

// query Given CC(=O)Oc1ccccc1C(=O)Nc1ncc([N+](=O)[O-])s1 , state whether its growth inhibition is at least 10%.
// result Condition not met

// query Given Cc1cccc(Cn2ccc(NC(=O)c3ccc4c(c3)OCO4)n2)c1 , state whether its growth inhibition is at least 10%.
// result Condition not met

// query Given c1ccc(Oc2ccc(-c3cc(N4CCNCC4)[nH]n3)cc2)cc1 , state whether its growth inhibition is at least 10%.
// result Condition met

// query Given Cc1ccc(-c2cc(C(=O)Nc3cccnc3)c3cc(Br)ccc3n2)cc1 , state whether its growth inhibition is at least 10%.
// result Condition met

// query Given COc1ccc(Cl)cc1NC(=O)CN(C)C(=O)c1cnn(-c2ccccc2)n1 , state whether its growth inhibition is at least 10%.
// result Condition met

// query Given CC(C)(C)OC(=O)N1CCC(Cn2nc(-c3cnc4ccccc4c3)c3c(N)ncnc32)CC1 , state whether its growth inhibition is at least 10%.
// result Condition not met

// query Given CCN(CC)C(=O)N1CCN(C)CC1 , state whether its growth inhibition is at least 10%.
// result Condition not met

// query Given CN1CCN(CCCOc2ncc(Nc3ncc(-c4ccc(C(F)(F)F)c(F)c4)nc3C(N)=O)cn2)CC1 , state whether its growth inhibition is at least 10%.
// result Condition met

// query Given COc1ccccc1C(C)NCC(=O)Nc1cc(C(F)(F)F)ccc1Cl (stereo not drawn) , state whether its growth inhibition is at least 10%.
// result Condition met

// query Given NCC(=O)N1CCn2c(nc(-c3ccccc3)c2Nc2ccc3c(c2)OCO3)C1 , state whether its growth inhibition is at least 10%.
// result Condition met

// query Given CC(C)=CCC/C(C)=C/CNCCNC1C2CC3CC(C2)CC1C3 (stereo not drawn) , state whether its growth inhibition is at least 10%.
// result Condition met

// query Given O=C(Nc1ccccc1)c1ccc(-c2cc3ccncc3cc2OC2CCNCC2)s1 , state whether its growth inhibition is at least 10%.
// result Condition met

// query Given Nc1nc2cc(-c3cncc(Oc4ccc(F)cc4)c3)ccc2[nH]1 , state whether its growth inhibition is at least 10%.
// result Condition met

// query Given O=C(c1ccc(F)cc1)N(CCNc1ccccc1)c1ccccc1 , state whether its growth inhibition is at least 10%.
// result Condition not met

// query Given COc1ccccc1OCCCCn1c(C2CC2)nc2ccccc21 , state whether its growth inhibition is at least 10%.
// result Condition met

// query Given CC(=O)N1CCN(c2ccc(Oc3ccc(Cl)cc3O)cc2)CC1 , state whether its growth inhibition is at least 10%.
// result Condition met

// query Given CC(C)C(NC(=O)Cc1cccc2ccccc12)C(=O)Nc1cccc(C#N)c1 (stereo not drawn) , state whether its growth inhibition is at least 10%.
// result Condition met

// query Given Cc1nnc(NCc2cccc(Cl)c2)c2ccccc12 , state whether its growth inhibition is at least 10%.
// result Condition not met

// query Given Cc1[nH]c2ccccc2c1C(c1cccs1)N1CCN(C)CC1 (stereo not drawn) , state whether its growth inhibition is at least 10%.
// result Condition met

// query Given Nc1ncc(Br)cc1-c1nc2cc(Cl)cnc2[nH]1 , state whether its growth inhibition is at least 10%.
// result Condition not met

// query Given c1ccc2c(c1)CN(CC1CC1)CC1(CCN(Cc3c[nH]c4cnccc34)CC1)O2 , state whether its growth inhibition is at least 10%.
// result Condition met

// query Given CC1=Nc2ccc(Cl)cc2C(c2ccccc2)N1CCNC(=O)CN(C)C (stereo not drawn) , state whether its growth inhibition is at least 10%.
// result Condition met

// query Given Cc1nnc(NC(=O)c2cn(-c3ccccc3)nc2-c2ccccc2C)o1 , state whether its growth inhibition is at least 10%.
// result Condition met

// query Given CN1CCCC1CCO[C@](C)(c1ccccc1)c1ccc(Cl)cc1 (stereo partly drawn) , state whether its growth inhibition is at least 10%.
// result Condition met

// query Given c1ccc(Oc2ccc(-c3cc(CN4CCOCC4)[nH]n3)cc2)cc1 , state whether its growth inhibition is at least 10%.
// result Condition not met

// query Given CCOC(=O)c1noc(N)c1-c1ccccc1 , state whether its growth inhibition is at least 10%.
// result Condition met

// query Given O=C([C@@H](c1ccc(Cl)cc1)c1cccnc1)N1CCN(c2ccc(C(F)(F)F)cc2)CC1 , state whether its growth inhibition is at least 10%.
// result Condition not met

// query Given C[C@H]1c2cccc(O)c2C(=O)C2=C(O)[C@]3(O)C(=O)C(C(N)=O)=C(O)[C@@H](N(C)C)[C@@H]3[C@@H](O)[C@@H]21 , state whether its growth inhibition is at least 10%.
// result Condition met

// query Given CC(C)(C)OC(=O)N1CCN(c2nccc(-c3ccc(-c4ccc(Cl)cc4)s3)n2)CC1 , state whether its growth inhibition is at least 10%.
// result Condition not met

// query Given O=C(C1CCN(c2cc(-n3cccc3)ncn2)CC1)N1CCc2ccccc2C1 , state whether its growth inhibition is at least 10%.
// result Condition not met

// query Given O=C(C1CCN(c2nnc(-n3cccc3)s2)CC1)N1CCC(Cc2ccccc2)CC1 , state whether its growth inhibition is at least 10%.
// result Condition not met

// query Given O=C(C1CCCCC1)N1CC(=O)N2CCc3ccccc3C2C1 (stereo not drawn) , state whether its growth inhibition is at least 10%.
// result Condition met

// query Given CC(C(=O)N1CCCC1)N1CCN(S(=O)(=O)c2ccc(C(C)(C)C)cc2)CC1 (stereo not drawn) , state whether its growth inhibition is at least 10%.
// result Condition met

// query Given Cc1nn2c(=O)c3c([nH]c2c1-c1ccc(Cl)cc1)CCCC3 , state whether its growth inhibition is at least 10%.
// result Condition met

// query Given CC(=O)Nc1ccc(-c2noc(CC3CCCN(Cc4cccc(F)c4C)C3)n2)cc1 (stereo not drawn) , state whether its growth inhibition is at least 10%.
// result Condition not met

// query Given COc1ccc(Cn2cnc3c(-c4ccco4)nc(Cl)nc32)cc1 , state whether its growth inhibition is at least 10%.
// result Condition met

// query Given COc1ccc2nc(C)cc(OCC(=O)NCc3ccccc3)c2c1 , state whether its growth inhibition is at least 10%.
// result Condition not met

// query Given CS(=O)(=O)c1cccc(-c2cnc3[nH]cc(-c4ccc(CCC(=O)O)cc4)c3c2)c1 , state whether its growth inhibition is at least 10%.
// result Condition met

// query Given COc1ccc2nccc(NC(=O)C3CCN(CCc4ccc(Cl)cc4)CC3)c2n1 , state whether its growth inhibition is at least 10%.
// result Condition met

// query Given Cc1nc(-c2ccccn2)nc(N2CCC(Cc3ccccc3)C2)c1Cl (stereo not drawn) , state whether its growth inhibition is at least 10%.
// result Condition not met
